Dear all, this message contains IC50 results, target or system Stimulator of interferon genes protein (Homo sapiens).
readout: IC50 (µM)

{"columns": ["smiles.entry", "numeric.readout"],
 "data": [
  ["COc1cc2c(=O)c3ccccc3n(CC(=O)O)c2c(C)c1C", 8.26],
  ["COc1cc(CC(=O)O)c2[nH]c3c(C)c(C)c(OC)cc3c(=O)c2c1", 11.4]
]}

P. COc1ccc2c(c1)c(=O)c1cc(OC)c(C)c(C)c1n2CC(=O)O
Q. COc1ccc2c(c1)c(=O)c1cc(OC)c(C)c(C)c1n2CC(=O)OCC(C)(C)C
Of P and Q , which shows the smaller IC50 value? Please respond with the label that marks your chosen entry. P
